Experiment: recombinant UMI read abundance after kanamycin selection (control-corrected) (log10(CPM+1)); higher = more efficient recombination; extreme values may be limits of the assay; sequences stand for … in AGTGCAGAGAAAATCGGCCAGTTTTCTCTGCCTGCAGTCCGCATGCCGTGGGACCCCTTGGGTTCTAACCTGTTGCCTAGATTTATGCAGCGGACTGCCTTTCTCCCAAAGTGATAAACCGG…AGGTTGGTTTCACT; site = the 11-nt donor;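 further: IS621 bridge recombinase in Escherichia coli cells against a fixed T5 target plasmid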
recombinant UMI read abundance (log10) values for the sequences below.
// no unit string in output, number only

Example results:
Sequence | recombinant UMI read abundance (log10)
TTTGAGGCATGGACCGGTTTTCCCGGTAATCCGTATTTGCT (site TTTGGGGCTAG) | 0.458
AGGAGTACATGGACCGGTTTTCCCGGTAATCCGTATTTGTC (site AGGAGTACTGA) | 2.17
CTAGTTTCATGGACCGGTTTTCCCGGTAATCCGTATTTGAC (site CTAGTCTCTGT) | 1.74
CCCCAAGCATGGACCGGTTTTCCCGGTAATCCGTATTTGGC (site CCCCAAGCTGC) | 0
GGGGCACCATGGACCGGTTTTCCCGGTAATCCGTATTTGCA (site GGGGAACCTTG) | 0

Please fill in: recombinant UMI read abundance (log10) reported for TCATCTACATGGACCGGTTTTCCCGGTAATCCGTATTTGTG (site GCATCTACTCA) = 0.0109

GET /value?item= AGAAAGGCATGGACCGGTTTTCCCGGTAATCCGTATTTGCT (site TGAAAGGCTAG) &field=recombinant UMI read abundance (log10) returns 0.932

Record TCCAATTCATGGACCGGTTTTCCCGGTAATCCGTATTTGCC (site TCCAATTCTCG) , field recombinant UMI read abundance (log10): 0

// recombinant UMI read abundance (log10) lookup, sequence = AAGCGGTCATGGACCGGTTTTCCCGGTAATCCGTATTTGTT (site AAGCGGTCTAA) , result: 1.4

Just so you know, measured recombinant UMI read abundance (log10) for GCTACTACATGGACCGGTTTTCCCGGTAATCCGTATTTGCC (site GCTACTTCTGG) came out at 0

Please fill in: recombinant UMI read abundance (log10) reported for TTGCTACCATGGACCGGTTTTCCCGGTAATCCGTATTTGCT (site ATGCTACCTAG) = 0

recombinant UMI read abundance (log10) reported for this sequence GTACGAGCATGGACCGGTTTTCCCGGTAATCCGTATTTGCA (site GTGCGAGCTTG) : 2.02

The reported recombinant UMI read abundance (log10) of the sequence TCCACCGCATGGACCGGTTTTCCCGGTAATCCGTATTTGCC (site TCCACCGCTTG) was 0.00442

Reported recombinant UMI read abundance (log10) of TCATACTCATGGACCGGTTTTCCCGGTAATCCGTATTTGCT (site TCATACTCTCG) : 0

Per the records, this sequence ( AGCCTACCATGGACCGGTTTTCCCGGTAATCCGTATTTGTT (site AGCCTAGCTAA) ) has recombinant UMI read abundance (log10) equal to 0.00248

Entry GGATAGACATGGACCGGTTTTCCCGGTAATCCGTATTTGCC (site GGATAGCCTGG) — recorded recombinant UMI read abundance (log10) = 0.943

The reported recombinant UMI read abundance (log10) of the sequence ATGGTAGCATGGACCGGTTTTCCCGGTAATCCGTATTTGGA (site ATGGTAGCTTC) was 1.72

Note to self: recombinant UMI read abundance (log10) recorded for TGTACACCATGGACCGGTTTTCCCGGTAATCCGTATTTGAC (site TGTACCCCTGT) was 0
